Where a SMILES comes first, the peptide text is derived from it. The star is where a group is joined. X1 = C=C[C@](C)(/C=C/c1ccc(OCC(=O)*)cc1)CCC=C(C)C
Recorded below: MIC, system S. aureus ATCC29213.
Experimental readout: MIC (µg/mL)

Compound | Experimental readout | Readout value
C=C[C@@](C)(/C=C/c1ccc(OCCCCNC(=N)N)cc1)CCC=C(C)C [Compound 35] | MIC | 3.12
C=C[C@@](C)(/C=C/c1ccc(OCCCCNCCCCCCCC)cc1)CCC=C(C)C [Compound 17] | MIC | 6.25
C=C[C@@](C)(/C=C/c1ccc(OCCCCN(C)CCCN(C)C)cc1)CCC=C(C)C [Compound 26] | MIC | 1.56
C=C[C@@](C)(/C=C/c1ccc(OCCCCN2CCNCCNCCNCCNCC2)cc1)CCC=C(C)C [Compound 31] | MIC | 1.56
C=C[C@](C)(/C=C/c1ccc(OCC(=O)N[C@H](CCCNC(=N)N)C(=O)N2CCN(c3ccc(N4CC(CNC(C)=O)OC4=O)cc3F)CC2)cc1)CCC=C(C)C (stereo partly drawn) [Compound 53] | MIC | 0.78
C=C[C@@](C)(/C=C/c1ccc(OCCCCCCCCN(CC)CC)cc1)CCC=C(C)C [Compound 11] | MIC | 3.12
C=C[C@@](C)(/C=C/c1ccc(OCCCCNCCCCCC)cc1)CCC=C(C)C [Compound 16] | MIC | 1.56
C=C[C@@](C)(/C=C/c1ccc(OCCCCN(C)CCCN(C)CCCNC)cc1)CCC=C(C)C [Compound 27] | MIC | 1.56
C=C[C@@](C)(/C=C/c1ccc(OCCCCN(Cc2ccccn2)Cc2ccccn2)cc1)CCC=C(C)C [Compound 22] | MIC | 3.12
C=C[C@@](C)(/C=C/c1ccc(OCCCCN(C)CCCNC)cc1)CCC=C(C)C [Compound 24] | MIC | 1.56
C=C[C@@](C)(/C=C/c1ccc(OCCCCCCCCCCN(CC)CC)cc1)CCC=C(C)C [Compound 12] | MIC | 12.5
C=C[C@@](C)(/C=C/c1ccc(OCC(=O)N[C@@H](CCCCN)C(=O)OC)cc1)CCC=C(C)C [Compound 47] | MIC | 6.25
C=C[C@](C)(/C=C/c1ccc(OCC(=O)N[C@@H](CCCNC(=N)N)C(=O)N[C@@H](CCCNC(=N)N)C(=O)N[C@@H](CCCNC(=N)N)C(N)=O)cc1)CCC=C(C)C [Compound 58] | MIC | 0.39
C=C[C@](C)(/C=C/c1ccc(OCC(=O)N[C@@H](Cc2c[nH]cn2)C(=O)N[C@@H](Cc2c[nH]cn2)C(=O)OC)cc1)CCC=C(C)C [Compound 55] | MIC | 12.5
C=C[C@](C)(/C=C/c1ccc(OCC(=O)N[C@@H](CCCNC(=N)N)C(=O)OC)cc1)CCC=C(C)C [Compound 38] | MIC | 0.78
C=C[C@](C)(/C=C/c1ccc(OCC(=O)N[C@@H](CCCNC(=N)N)C(=O)N[C@@H](CCCNC(=N)N)C(=O)N[C@@H](CCCNC(=N)N)C(=O)OC)cc1)CCC=C(C)C [Compound 45] | MIC | 0.39
C=C[C@@](C)(/C=C/c1ccc(OCCCCN2CCN(CCCN(C)C)CC2)cc1)CCC=C(C)C [Compound 23] | MIC | 1.56
C=C[C@@](C)(/C=C/c1ccc(OCCCN(C)C)cc1)CCC=C(C)C [Compound 8] | MIC | 6.25
C=C[C@@](C)(/C=C/c1ccc(OCCCCNCCCCCCCCCC)cc1)CCC=C(C)C [Compound 18] | MIC | 50
C=C[C@@](C)(/C=C/c1ccc(OCCCCN2CCN(C)CC2)cc1)CCC=C(C)C [Compound 21] | MIC | 1.56
C=C[C@](C)(/C=C/c1ccc(OCC(=O)N[C@H](CCCNC(=N)N)C(N)=O)cc1)CCC=C(C)C [Compound 39] | MIC | 3.12
C=C[C@](C)(/C=C/c1ccc(OCC(=O)N[C@@H](CCCNC(=N)N)C(=O)N[C@@H](CCCNC(=N)N)C(=O)N[C@@H](CCCNC(=N)N)C(=O)N[C@@H](CCCNC(=N)N)C(N)=O)cc1)CCC=C(C)C [Compound 61] (X1-RRRR-NH2) | MIC | 0.78
C=C[C@@](C)(/C=C\c1ccc(OCC(=O)N[C@@H](CCCNC(=N)N)C(=O)N[C@@H](Cc2c[nH]cn2)C(=O)OC)cc1)CCC=C(C)C [Compound 50] | MIC | 6.25
C=C[C@@](C)(/C=C/c1ccc(OCCCCN(CCCN(C)C)CCCN(C)C)cc1)CCC=C(C)C [Compound 28] | MIC | 1.56
C=C[C@](C)(/C=C/c1ccc(OCC(=O)N[C@@H](CCCNC(=N)N)C(=O)N[C@@H](CCCNC(=N)N)C(=O)N[C@@H](CCCNC(=N)N)C(=O)N[C@@H](CCCNC(=N)N)C(=O)N[C@@H](CCCNC(=N)N)C(=O)N[C@@H](CCCNC(=N)N)C(=O)OC)cc1)CCC=C(C)C [Compound 64] | MIC | 1.56
C=C[C@](C)(/C=C/c1ccc(OCC(=O)N[C@@H](Cc2c[nH]cn2)C(=O)OC)cc1)CCC=C(C)C [Compound 40] | MIC | 6.25
C=C[C@](C)(/C=C/c1ccc(OCC(=O)N[C@@H](CCCNC(=N)N)C(=O)NCCCN(CC)CC)cc1)CCC=C(C)C [Compound 52] | MIC | 1.56

====

Notes on MIC obtained with S. aureus ATCC29213.
Where a SMILES comes first, the peptide text is derived from it. The star is where a group is joined. X1 = C=C[C@](C)(/C=C/c1ccc(OCC(=O)*)cc1)CCC=C(C)C

Compound | MIC (µg/mL)
C=C[C@@](C)(/C=C/c1ccc(OCCCCN2CCCNCCNCCCNCC2)cc1)CCC=C(C)C | 0.78
C=C[C@@](C)(/C=C/c1ccc(OCCCCNCCSC)cc1)CCC=C(C)C | 0.78
C=C[C@](C)(/C=C/c1ccc(OCC(=O)N[C@@H](CCCNC(=N)N)C(=O)N[C@@H](CCCNC(=N)N)C(=O)N[C@@H](CCCNC(=N)N)C(=O)N[C@@H](CCCNC(=N)N)C(=O)OC)cc1)CCC=C(C)C [Compound 60] (X1-RRRR-OMe) | 0.39
C=C[C@@](C)(/C=C/c1ccc(OCCCN(CC)CC)cc1)CCC=C(C)C | 3.12
C=C[C@](C)(/C=C/c1ccc(OCC(=O)N[C@@H](CCCNC(=N)N)C(=O)N[C@@H](CCCNC(=N)N)C(=O)N[C@@H](CCCNC(=N)N)C(=O)N2CCN(c3ccc(N4C[C@H](CNC(C)=O)OC4=O)cc3F)CC2)cc1)CCC=C(C)C | 0.78
C=C[C@@](C)(/C=C/c1ccc(OCCCCNCCCC)cc1)CCC=C(C)C | 1.56
C=C[C@@](C)(/C=C/c1ccc(OCCCCN(CC)CC)cc1)CCC=C(C)C | 3.12

====

Some compounds, each annotated with its measured MIC.
System: Gram-positive bacteria
Assay: Antibacterial activity against Gram-positive bacteria (MIC summary)
Type: cell-based
Settings: 24 h; summary of tables 1 and 2; read-out: minimum inhibitory concentration (MIC) against Gram-positive bacteria

Compound | MIC
C=C[C@@](C)(/C=C/c1ccc(OCCCCN2CCNCCNCCNCCNCC2)cc1)CCC=C(C)C | 0.39 to 3.12 µg/mL
C=C[C@@](C)(/C=C/c1ccc(OCCCCN(CCCN(C)C)CCCN(C)C)cc1)CCC=C(C)C | 0.39 to 3.12 µg/mL
C=C[C@](C)(/C=C/c1ccc(OCC(=O)N[C@@H](CCCNC(=N)N)C(=O)N[C@@H](CCCNC(=N)N)C(=O)N[C@@H](CCCNC(=N)N)C(=O)N2CCN(c3ccc(N4C[C@H](CNC(C)=O)OC4=O)cc3F)CC2)cc1)CCC=C(C)C | 0.39 to 3.12 µg/mL
